# credit: ChEMBL document CHEMBL1126535

Target Or System: Type-1 angiotensin II receptor (Oryctolagus cuniculus, UniProt P34976)
Sequence (P34976 whole entry): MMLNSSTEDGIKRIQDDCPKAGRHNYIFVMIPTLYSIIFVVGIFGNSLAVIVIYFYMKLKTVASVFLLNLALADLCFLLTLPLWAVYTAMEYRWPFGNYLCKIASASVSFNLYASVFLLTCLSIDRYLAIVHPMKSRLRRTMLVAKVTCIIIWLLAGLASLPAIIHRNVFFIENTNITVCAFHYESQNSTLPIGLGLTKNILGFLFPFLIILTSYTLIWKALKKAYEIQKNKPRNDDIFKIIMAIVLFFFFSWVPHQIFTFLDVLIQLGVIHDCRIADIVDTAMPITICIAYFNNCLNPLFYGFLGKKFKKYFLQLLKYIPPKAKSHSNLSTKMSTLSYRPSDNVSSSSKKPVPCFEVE
Protocol Text: In vitro binding affinity towards Angiotensin II type 1-AT1 receptor determined as its ability to displace 125I-Sarl,Ile8-AII from the receptor expressed in rabbit aorta membrane.
Quantity: IC50 (nM)

P: CCCc1nc2c(C)ccnc2n1Cc1ccc(-c2ccccc2-c2nn[nH]n2)cc1
Q: CCCc1nc2c(C)ccnc2n1Cc1ccc(-c2ccncc2-c2nn[nH]n2)cc1
R: CCCc1nc2c(C)ccnc2n1Cc1ccc(-c2cccnc2-c2nn[nH]n2)cc1
### Prompt Highest to lowest IC50: rank the entries shown above. // format: requested-order list of labels
### Response R, Q, P
(R: 60 nM, Q: 4 nM, P: 1 nM)
